Test system: Calu-3
Assay: cell viability relative to DMSO; higher = less toxic
Settings: 72 h; 10 nM
# cell viability annotations
Field: numeric (%). Do not append units.

Some compounds with recorded cell viability:
1. CS(=O)(=O)N(Cc1ccco1)C[C@@H](O)Cn1c2ccccc2c2ccccc21	93.2
2. C[C@]12CC[C@@H]3c4ccc(O)cc4C[C@@H](CCCCCCCCC[S+]([O-])CCCC(F)(F)C(F)(F)F)[C@H]3[C@@H]1CC[C@@H]2O (some centres undefined)	114
3. CCCCC(F)(F)[C@@]1(O)CC[C@H]2[C@@H](CC(=O)[C@@H]2CCCCCCC(=O)O)O1	102
4. CCC(=O)OCC(=O)[C@@]1(OC(=O)CC)[C@H](C)C[C@H]2[C@H]3[C@H]([C@@H](O)C[C@@]21C)[C@@]1(C)C=CC(=O)C=C1C[C@H]3Cl [alclometasone-dipropionate]	88.1

Fill blank: measured cell viability of the compound `COc1ccc2c(O[C@@H]3C[C@H]4C(=O)N[C@]5(C(=O)NS(=O)(=O)C6CC6)C[C@H]5/C=C\CCCCN(C)C(=O)[C@@H]4C3)cc(-c3nc(C(C)C)cs3)nc2c1C` is ____.
99.7

Name the reported cell viability value associated with the compound CC(C)C(=O)SCCCCC[C@H](NC(=O)OC(C)(C)C)C(=O)NC12CC3CC(CC(C3)C1)C2 [TCS-HDAC6-20b]
93.3

====

System: A549-ACE2 infected with SARS-CoV-2
Assay: morphology score (similarity to uninfected cells); higher = more like uninfected cells
Conditions: 10 µM; 24 h
result-type: morphology score
Respond numerically, and do not add a unit to the figure.

These recorded examples may help you get a feel for the data.
1. FC(F)(F)c1cc(CO[C@H]2CCCN[C@H]2c2ccccc2)cc(C(F)(F)F)c1	0.92
2. O=C(OC(C(F)(F)F)C(F)(F)F)N1CCN(Cc2cccc(Oc3ccccc3)c2)CC1 [JW-642]	-0.04
3. COc1ccc(/C=C/C(=O)/C=C(O)/C=C/c2ccc(OC)c(OC)c2)cc1OC [ASC-J9]	0.39
4. C[S+]([O-])CCCCN=C=S (stereo unspecified) [sulforaphane]	0.33
5. NC(=O)c1cnc(N[C@@H]2CCCC[C@@H]2N)nc1Nc1cccc(-n2nccn2)c1	0.43

# next molecule below
Short answer please: morphology score, A549-ACE2 infected with SARS-CoV-2, entry Clc1ccccc1CNC[C@H]1CC[C@H](CNCc2ccccc2Cl)CC1 [AY-9944]
0.56

====

molecules and their reported cell viability
Tested on: HepG2
Assay: cell viability relative to DMSO; higher = less toxic
Details: 72 h; 100 nM
Could you give me the number in %? Just the number is fine.

# get_value(readout= cell viability, system= HepG2) for `CC[C@H](CC[C@@H](C)[C@H]1CC[C@H]2[C@@H]3CC=C4C[C@@H](O[C@@H]5O[C@H](CO)[C@@H](O)[C@H](O)[C@H]5O)CC[C@]4(C)[C@H]3CC[C@]12C)C(C)C`
102

Write down the reported cell viability of Cc1ccc(C23CNCC2C3)cc1 (centres undefined) , test system: HepG2.
100

Please provide the recorded cell viability for `O=C(NNC(=O)c1ccc(CNS(=O)(=O)c2ccc(F)c(Cl)c2)cc1)c1ccccc1` , tested on HepG2.
97

Can you look up cell viability on HepG2 for `CCCn1c(=O)[nH]c(=O)c2nc[nH]c21` ?
100

====

Each entry below carries its reported cell viability.
Test system: U2OS
Test: cell viability relative to DMSO; higher = less toxic
Details: 72 h; 100 nM
Respond with a number, then the unit of measure.

Below are worked cases with known answers.
1. CC(C)(C)c1cc(/C=C(\C#N)C(N)=S)cc(C(C)(C)C)c1O	98.7%
2. COc1cc(C[C@@H](CO[C@@H]2O[C@H](CO)[C@@H](O)[C@H](O)[C@H]2O)[C@H](CO[C@@H]2O[C@H](CO)[C@@H](O)[C@H](O)[C@H]2O)Cc2ccc(O)c(OC)c2)ccc1O [secoisolariciresinol-diglucoside]	101%

Turning now to a further record.
Notebook entry, U2OS assay: cell viability of `CCCCCNC(=N)N/N=C/c1c[nH]c2ccc(OC)cc12` = ?
94.6%

====

Test system: HepG2
Assay: cell viability relative to DMSO; higher = less toxic
Settings: 72 h; 10000 nM
Each record is given Criterion met if its reported cell viability is strictly below 80%. Records at or above 80% are given Criterion not met.

Solved entries (count: 5):
1. O=c1[nH]c2ccccc2n1C1CCN(CCOc2ccccc2)CC1 [oxiperomide]	Criterion met
2. O=C(NCNC(=O)NC1C(=O)NC(=O)N1CO)NC1C(=O)NC(=O)N1CO (stereo not drawn) [imidurea]	Criterion not met
3. O=C(NNC(=O)c1ccc(CNS(=O)(=O)c2ccc(F)c(Cl)c2)cc1)c1ccccc1 [TCN201]	Criterion not met
4. N#Cc1ccccc1OCC(O)CNCCNC(=O)Nc1ccccc1 (stereo not drawn)	Criterion not met
5. Cc1cnc(CNC(=O)c2c(=O)c3ccc(N4CCCN(C)CC4)nc3n3c2sc2ccccc23)cn1 [CX-5461]	Criterion met

Record `CC(Oc1ccc(O)cc1)(P(=O)(O)O)P(=O)(O)O` : is its cell viability strictly below 80%?
Criterion not met

In the record for C[C@]12CCC(=O)C(O)=C1CC[C@@H]1[C@@H]2CC[C@]2(C)C(=O)CC[C@@H]12 [formestane] , is cell viability less than 80%?
Criterion not met

is_below(cell viability, 80%) for `NC1=N[C@@]2(c3cc(NC(=O)c4ccc(F)cn4)ccc3F)COC[C@H]2CS1` ?
Criterion not met

====

System: Vero E6
Experiment: cell viability relative to DMSO; higher = less toxic
Conditions: 72 h; 100 nM
result-type: cell viability (%)
The reply should contain only the number, in %.

Examples with their reported cell viability follow.
1) CN(C)CCOc1ccc(/C(=C(/CCCl)c2ccccc2)c2ccccc2)cc1	90.4
2) CC(C)(C)OC(=O)c1ncn2c1[C@@H]1CCCN1C(=O)c1c(Br)cccc1-2	95.5
3) COc1cccc(OCCCN)c1-c1cc(Nc2cnc(C#N)cn2)n[nH]1	84.9
4) COc1cc2c(cc1OCCCN1CCCC1)N=C(N)C21CCC1	93.6

What does the record list as cell viability for `Cc1cc(-n2c(=O)[nH]c(=O)n(C)c2=O)ccc1Oc1ccc(SC(F)(F)F)cc1` ?
101

Entry `O=C(O)Cc1ccc2c(c1)C(=O)c1ccccc1CO2` : reported cell viability = ?
101

Recorded cell viability for CC(C(=O)O)c1ccc2c(c1)[nH]c1ccc(Cl)cc12 (configuration not stated) , please?
115

I would be grateful if you could share the reported cell viability for `COc1ccccc1C(=O)Nc1cc2c(cc1N1CCCC1)n(C)c(=O)n2C` .
96.2

Record request: cell viability value, item `CN(C)CCn1cc(S(=O)(=O)c2cccc(F)c2)c2cccnc21`
101

Which cell viability value belongs to CC1(C)S[C@@H]2[C@H](NC(=O)C(C(=O)O)c3ccccc3)C(=O)N2[C@H]1C(=O)O (some centres not stated) ?
102

What does the data say about its cell viability? Entry: CC(C)(C)NCC(O)CSc1nc(-c2ccc(C(N)=O)s2)cs1 (configuration not stated)
106

====

Test system: Caco-2
Assay: cell viability relative to DMSO; higher = less toxic
Conditions: 72 h; 10 nM
result-type: cell viability (%)
Reply with just the number (in %).

1) COc1ccc2ccc(=O)oc2c1CC=C(C)C	95.1
2) CC[N+](CC)(CCCNC1=CC(=O)C(NCCC[N+](CC)(CC)Cc2ccccc2)=CC1=O)Cc1ccccc1 [benzoquinonium-dibromide]	98.6
3) O=C(O)Cc1ccc2c(c1)C(=O)c1ccccc1CO2	102

# input compound: Cc1ccnc(NC(=O)C(C)c2cccc(C(=O)c3ccccc3)c2)c1 (stereo not drawn) ; wanted: its cell viability
87.3

Given the entry `N#Cc1c[nH]c2c(C(=O)N3CCN(CCc4ccc(F)cc4)CC3)cccc12` , report its measured cell viability.
95.3

Entry under review: CC(C(=O)O)c1ccc2c(c1)[nH]c1ccc(Cl)cc12 (stereo not drawn) . Reported cell viability?
96.5

Fill in the blank: the reported cell viability of `O=C(Nc1ccncc1)C(=O)c1cn(Cc2ccc(Cl)cc2)c2ccccc12` is ____.
84

# input compound: C[C@H]1O[C@@H](O[C@H]2CC[C@@]3(C)[C@H](CC[C@@H]4[C@@H]3C[C@@H](O)[C@]3(C)[C@@H](C5=CC(=O)OC5)CC[C@]43O)C2)C[C@H](O)[C@@H]1O[C@H]1C[C@H](O)[C@H](O[C@H]2C[C@H](O)[C@H](O[C@@H]3O[C@H](CO)[C@@H](O)[C@H](O)[C@H]3O)[C@@H](C)O2)[C@@H](C)O1 [deslanoside] ; wanted: its cell viability
95

====

Tested on: Calu-3
Test: cell viability relative to DMSO; higher = less toxic
Conditions: 72 h; 1 nM
// values below are reported cell viability
Response body: numeric value in %, unit text excluded.

What cell viability value was documented for this compound, C[C@]12CC[C@@H]3c4ccc(O)cc4C[C@@H](CCCCCCCCC[S+]([O-])CCCC(F)(F)C(F)(F)F)[C@H]3[C@@H]1CC[C@@H]2O (some centres undefined) ?
96.7

Endpoint output: cell viability of `N#Cc1cnc2c(Cl)cc(NCc3cn(CCN4CCCCCC4)nn3)cc2c1Nc1ccc(F)c(Cl)c1` . Value?
104

For the compound `Clc1ccccc1CNC[C@H]1CC[C@H](CNCc2ccccc2Cl)CC1` , what cell viability is on record?
97.7

I would be grateful if you could share the reported cell viability for `CC(C)(C)OC(=O)c1ncn2c1[C@@H]1CCCN1C(=O)c1c(Br)cccc1-2` .
90
